settings: in ethanol, 328.15 K
Quantity measured: solubility (mole fraction)
I only need the number, thanks.

State the recorded solubility (mole fraction) for this entry: CC(CCc1ccccc1)NCC(O)c1ccc(O)c(C(N)=O)c1.Cl (stereo unspecified)
0.00395

====

details: in isobutanol, 328.15 K
Quantity measured: solubility (mole fraction)
I only need the number, thanks.

State the recorded solubility (mole fraction) for this entry: CC(CCc1ccccc1)NCC(O)c1ccc(O)c(C(N)=O)c1.Cl (stereo unspecified)
0.00126

====

settings: in methanol, 308.15 K
Quantity measured: solubility (mole fraction)
I only need the number, thanks.

State the recorded solubility (mole fraction) for this entry: CC(CCc1ccccc1)NCC(O)c1ccc(O)c(C(N)=O)c1.Cl (stereo unspecified)
0.0144

====

details: in n-butanol, 323.15 K
Quantity measured: solubility (mole fraction)
I only need the number, thanks.

State the recorded solubility (mole fraction) for this entry: CC(CCc1ccccc1)NCC(O)c1ccc(O)c(C(N)=O)c1.Cl (stereo unspecified)
0.00136

Source of measurements: BigSolDB 2.1
